# credit: paper PMC11532403

assay: Pharmacokinetics in rats; format: in vivo, SD rats; details: both sexes, SD, rat, plasma, po; gavage 5 mg/kg
Quantity name: AUC(0-inf)

Problem: Would you mind telling me what AUC(0-inf) value was observed for COc1ccc(CN2C3CC2CN(c2ccc(-c4cc(N5CC(C)(O)C5)cn5ncc(C#N)c45)cn2)C3)cn1 [SY-5007] ?
Result: 11900 ng·h/mL

---

Assay: Pharmacokinetics in beagles
Assay type: in vivo
Details: both sexes, beagle, dog, plasma, po; gavage 2.5, 5, 10 mg/kg
From the text: Absorption and elimination in the body may both gradually tend towards saturation. In addition, there was no statistically significant difference in plasma pharmacokinetic parameters between female and male beagles administered SY-5007 by gavage alone.
Quantity name: Tmax

Problem: Would you mind telling me what Tmax value was observed for `COc1ccc(CN2C3CC2CN(c2ccc(-c4cc(N5CC(C)(O)C5)cn5ncc(C#N)c45)cn2)C3)cn1` ?
Result: 0.5 to 2 h
